- Tested on: Streptococcus sp. 'group A'
- protocol: growth inhibition of control SK(-) GAS strain, dose response, counter-screen for streptokinase expression inhibitor project, luminescence, kanamycin, BacTiterGlo, confirmation (AID 1900)
- Assay type: functional, organism-based
Activity calls are given as the source filed them.
Some molecules, each annotated with its measured EC50.

Guide cases for EC50, answers given:
molecule | reported.endpoint | observed.value
NC(=S)N/N=C\c1c(OCc2ccccc2Cl)ccc2ccccc12 | EC50 | 2.39 µM (active)
O=C(c1ccccc1Cl)N1CCN(S(=O)(=O)c2cccs2)CC1 | EC50 | > 150 µM (not active)
CC1=NN(c2nc(-c3ccccc3)cs2)C(=O)C1 | EC50 | 16.9 µM (active)
O=S(=O)(Nc1cccc2c1CCCC2)c1ccc(Cl)cc1 | EC50 | 4.86 µM (active)
O=C(CCCN1C(=O)/C(=C\c2cccs2)SC1=S)Nc1cc([N+](=O)[O-])ccc1O | EC50 | 4.29 µM (active)

Tell me its EC50 given CCCC1=NN2C(=N)/C(=C\c3cc(C)n(-c4cc(C)cc(C)c4)c3C)C(=O)N=C2S1 as the entry.
1.63 µM (active)

Tell me its EC50 given O=C(N[C@H](CO)[C@H](O)c1ccc([N+](=O)[O-])cc1)C(Cl)Cl as the entry.
1.84 µM (active)

Tell me its EC50 given O=C(NCC1CCCO1)c1cc2c3ccccc3nc-2c(-c2cccc(Cl)c2)[nH]1 (stereo unspecified) as the entry.
4.12 µM (active)

Tell me its EC50 given O=C(Nc1nc(-c2ccccn2)cs1)C1CC1 as the entry.
> 150 µM (not active)

Tell me its EC50 given Cc1cnn(-c2nc(-c3ccccc3)cc(-c3ccccc3)n2)c1 as the entry.
9.49 µM (active)

Tell me its EC50 given CN1CC(c2ccc(Cl)c(Cl)c2)[C@@]2(COc3ccccc3C2=O)[C@@]12C(=O)Nc1ccccc12 (stereo partly specified) as the entry.
2.96 µM (active)

* * *

- system.under.test: DNA dC->dU-editing enzyme APOBEC-3G (Homo sapiens, UniProt Q9HC16);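 note: Dose-response counterscreen measuring inhibition of APOBEC3G DNA deaminase activity, run while confirming APOBEC3A inhibitors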
- Sequence (Q9HC16 whole entry): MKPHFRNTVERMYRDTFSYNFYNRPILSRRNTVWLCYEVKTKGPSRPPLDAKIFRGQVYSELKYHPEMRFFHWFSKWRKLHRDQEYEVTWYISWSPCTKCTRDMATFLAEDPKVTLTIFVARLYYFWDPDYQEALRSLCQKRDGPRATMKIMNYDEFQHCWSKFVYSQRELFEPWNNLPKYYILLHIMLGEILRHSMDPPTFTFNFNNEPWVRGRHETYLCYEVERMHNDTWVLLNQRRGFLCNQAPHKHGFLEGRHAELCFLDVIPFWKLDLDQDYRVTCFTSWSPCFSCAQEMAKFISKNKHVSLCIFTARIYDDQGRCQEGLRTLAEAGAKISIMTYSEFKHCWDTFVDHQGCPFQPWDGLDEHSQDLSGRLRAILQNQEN
- Format: functional
Calls of active or inactive are those of the source.
# valid calls are active, inactive; nothing else

Would you please look over these solved cases?
smiles.notation | class.name
Cc1ccc(/C=C2/SC(Nc3ccc(F)cc3)=NC2=O)s1 | active
COc1ccc2[nH]c(=O)c(CN(C(=O)c3ccco3)C(C)C)cc2c1 | active
CC(=O)Nc1ccc(Nc2cc(C)nc(Nc3ccc(NC(C)=O)cc3)n2)cc1 | active
CCN1C(NCCOC)=N[C@@H](c2ccccc2)[C@H](C(=O)OC)[C@H]1C | active

Call for entry CN(Cc1ccccc1)C(=O)c1ncn(C)c1C(=O)N(C)Cc1ccccc1 :
inactive

Call for entry CC1(C)CC(N2CCN(c3ccccc3)CC2)=CC(=[N+]2CCCC2)C1 :
active

* * *

- protocol: control 3'UTR Renilla luciferase suppression, dose response, counter-screen for Shn3 inhibitor project, cell-based, Clone20-Shn3RL, cherry-picked (AID 624133)
- Assay type: functional
Activity calls are given as the source filed them.
Some molecules, each annotated with its measured AC50.

Guide cases for AC50, answers given:
molecule | observed.value
CC(C)(C)c1ccc(NC(=O)COc2ccc(-n3ccnc3)cc2)cc1 | 10 µM (active)
Cn1cnc([N+](=O)[O-])c1S(=O)(=O)Oc1ccccc1 | 24.1 µM (active)
O=c1c2ccccc2nc(/C=C/c2ccc([N+](=O)[O-])o2)n1-c1ccc(O)cc1 | 4.9 µM (active)

Tell me its AC50 given C=C1CC(COc2cc(=O)oc3ccccc23)(c2ccccc2)OC1=O (centres undefined) as the entry.
7.58 µM (active)
